Just for reference, ChEMBL document CHEMBL4350995 is where these values come from.

tested on: MDA-MB-468; assay: Antiproliferative activity against human MDA-MB-468 cells incubated for 5 days by SRB assay; assay type: functional, cell-based; settings: MDA-MB-468, 120 h
Numbered stars: 1 amine (or outer) side, 2 acyl side, 3 side chain; on linkers, the order of the positions; unused ones are H or OH. Square brackets hold non-standard residues; d marks the D form. Peptide text beside a SMILES is read from it. * marks the point of attachment. X3 = CCC(=O)C[C@@H](O)C[C@@H](C)C[C@H](N[*:1])C(=O)[*:2]; X4 = CCCCCCCC[C@@H](C)C[C@H](N[*:1])C(=O)[*:2]; X1 = CCCCCC[C@@H](C)C[C@H](N[*:1])C(=O)[*:2]; NH((S)CH(Me)CH2NHC2H4OH) = C[C@@H](CNCCO)N*; X9 = CCC(=O)CC(O)CCC[C@H](N[*:1])C(=O)[*:2]; Gly(decyl) = CCCCCCCCCC[C@H](N)C(=O)O; X7 = O=C([C@H](CCCCO)N[*:1])[*:2]; Aib = CC(C)(N)C(=O)O; Butyryl = CCCC(=O)*; βAla = NCCC(=O)O
The following compounds are shown together with reported IC50 values.
Please reply with the bare figure in nM and do not write the unit itself.

# COMPOUND, ASSAY_SYSTEM, UNIT, IC50
measured = [
    ("CCCCCC[C@@H](C)C[C@H](NC(=O)C(C)(C)NC(=O)C(C)(C)NC(=O)[C@H](CCCCO)NC(=O)[C@@H]1CCCN1C(=O)CCC)C(=O)N[C@@H](CC(C)C)C(=O)NC(C)(C)C(=O)N[C@@H](CC(C)C)C(=O)NCCC(=O)N[C@@H](C)CNCCO (Butyryl-P[X7][Aib][Aib][X1]L[Aib]L[βAla]-{NH((S)CH(Me)CH2NHC2H4OH)})", "MDA-MB-468", "nM", 25),
    ("CCCCCC[C@@H](C)C[C@H](NC(=O)C(C)(C)NC(=O)C(C)(C)NC(=O)[C@H](CCCC(O)CC(=O)CC)NC(=O)[C@@H]1CCCN1C(=O)CCC)C(=O)N[C@@H](CC(C)C)C(=O)NC(C)(C)C(=O)N[C@@H](CC(C)C)C(=O)NCCC(=O)N[C@@H](C)CNCCO (stereo partly drawn) (Butyryl-P[X9][Aib][Aib][X1]L[Aib]L[βAla]-{NH((S)CH(Me)CH2NHC2H4OH)})", "MDA-MB-468", "nM", 70),
    ("CCCCCC[C@@H](C)C[C@H](NC(=O)C(C)(C)NC(=O)C(C)(C)NC(=O)[C@H](CC(C)C)NC(=O)[C@@H]1CCCN1C(=O)CCC)C(=O)N[C@@H](CC(C)C)C(=O)NC(C)(C)C(=O)N[C@@H](CC(C)C)C(=O)NCCC(=O)N[C@@H](C)CNCCO (Butyryl-PL[Aib][Aib][X1]L[Aib]L[βAla]-{NH((S)CH(Me)CH2NHC2H4OH)})", "MDA-MB-468", "nM", 90),
    ("CCCCCCCC[C@@H](C)C[C@H](NC(=O)[C@@H]1CCCN1C(=O)CCC)C(=O)NC(C)(C)C(=O)NC(C)(C)C(=O)N[C@@H](C[C@H](C)CCCCCC)C(=O)N[C@@H](CC(C)C)C(=O)NC(C)(C)C(=O)N[C@@H](CC(C)C)C(=O)NCCC(=O)N[C@@H](C)CNCCO (Butyryl-P[X4][Aib][Aib][X1]L[Aib]L[βAla]-{NH((S)CH(Me)CH2NHC2H4OH)})", "MDA-MB-468", "nM", 40),
    ("CCCCCC[C@@H](C)C[C@H](NC(=O)C(C)(C)NC(=O)C(C)(C)NC(=O)[C@H](C[C@H](C)C[C@H](O)CC(=O)CC)NC(=O)[C@@H]1CCCN1C(=O)CCC)C(=O)N[C@@H](CC(C)C)C(=O)NC(C)(C)C(=O)N[C@@H](CC(C)C)C(=O)NCCC(=O)N[C@@H](C)CNCCO (Butyryl-P[X3][Aib][Aib][X1]L[Aib]L[βAla]-{NH((S)CH(Me)CH2NHC2H4OH)})", "MDA-MB-468", "nM", 11),
]

Now consider the entry below.
Looking up CCCCCCCCCC[C@H](NC(=O)[C@@H]1CCCN1C(=O)CCC)C(=O)NC(C)(C)C(=O)NC(C)(C)C(=O)N[C@@H](C[C@H](C)CCCCCC)C(=O)N[C@@H](CC(C)C)C(=O)NC(C)(C)C(=O)N[C@@H](CC(C)C)C(=O)NCCC(=O)N[C@@H](C)CNCCO (Butyryl-P[Gly(decyl)][Aib][Aib][X1]L[Aib]L[βAla]-{NH((S)CH(Me)CH2NHC2H4OH)}) , I found its IC50 recorded as 59
